- Tested on: SK-OV-3 ovarian
- ASSAY_DETAILS: NCI tumour cell line growth inhibition, 48 h
For each of the compounds below, state its TGI.

1) COC(=O)N[C@@H](C)CNc1nccc(-c2cn(C(C)C)nc2-c2cc(Cl)cc(NS(C)(=O)=O)c2F)n1; > 100 µM
2) Cc1noc(-c2ccc(C(=O)O)[nH]2)c1Br; > 100 µM
3) O=C(C#Cc1ccccc1)NC/C=C/c1ccccc1; 56.6 µM

Provide each entry's TGI from the list below.
1. Cc1cc2ccccc2n2c1nc1ccc(O)cc12
2. COC(=O)CCC(NC(=S)N/N=C(\C)c1cccs1)C(=O)OC (stereo unspecified)
3. CCCCn1c(-c2ccccc2)cs/c1=N\NC(=O)Cn1c(C)nc2ccccc21
4. CCC1OC2(C)CC(C#N)(C#N)C1(C#N)C(=N)O2 (stereo unspecified)
5. NC(=S)c1cccc(C2Nc3ccccc3O2)c1 (stereo unspecified)
6. NCCOCCOCC(=O)O
7. Cn1cnnc1Sc1c([N+](=O)[O-])nc(-c2ccc([N+](=O)[O-])cc2)n1C

Outgoing:
["> 10 µM", "> 100 µM", "> 100 µM", "> 100 µM", "> 100 µM", "> 100 µM", "> 100 µM"]

Incoming: Look at this compound and give its reported TGI. "C=C(CN1CCc2ccccc2C1)c1ccc(CCCC(=O)Nc2ccccc2N)cc1"
Outgoing: 52.9 µM

###

- Tested on: SR leukemia
- ASSAY_DETAILS: NCI tumour cell line growth inhibition, 48 h
RECORDED_METRIC: TGI (µM)
One number for each entry, in µM.

1) O=[N+]([O-])/C(Cl)=C(\NCCO)C(Cl)=C(Cl)Cl; 49.2

Incoming: Look at this compound and give its reported TGI. "O=C(Oc1cncc(Cl)c1)c1cc2ccccc2sc1=O"
Outgoing: 76.8

###

For each of the compounds below, state its TGI.
- System: SK-MEL-5 melanoma
- ASSAY_DETAILS: NCI tumour cell line growth inhibition, 48 h
Give bare numbers, in µM.

Record excerpt, results attached:
1) CCCC(=O)Nc1cc(/C=C/C(=O)N2C[C@@H]3C[C@]34C2=CC(=O)c2[nH]cc(C)c24)n(C)c1; 0.334
2) C=C(CN1CCN(c2ccccn2)CC1)c1ccc(C(=O)Nc2ccccc2N)cc1; 1.75
3) CC(=O)c1nc(-c2ccc(C[C@@H](CNC(=O)CN(C)C)NC(=O)c3ccc(OC(C)C)c(Cl)c3)cc2)cn1C; 5.51

Incoming: Look at this compound and give its reported TGI. "CN(C)CCN=c1nc2c(c(N)n1-c1ccccc1)c(=S)n(-c1ccccc1)c(=S)n2-c1ccccc1"
Outgoing: 2.93

###

- System: NCI/ADR-RES ovarian
- ASSAY_DETAILS: NCI tumour cell line growth inhibition, 48 h; in the data active = GI50 below about 0.43 µM; inactive = the rest
Response enum: 1.0 (active), 0.0 (inactive)

A selection of reference data follows.
1. Fc1ccc(-c2ncn(C3CCNCC3)c2-c2ccnc(Oc3ccc(Cl)cc3)n2)cc1; 0.0
2. O=C(OCC1=CC(=O)c2ccccc2C1=O)c1ccccc1; 0.0
3. C/C(=N\NC(=S)N1CCCC1)c1ccccn1; 1.0
4. C=C(CN1CCN(c2ccccn2)CC1)c1ccc(C(=O)Nc2ccccc2N)cc1; 0.0
5. Cc1cc(C)c(-c2c(O)c(Br)c(-c3c(C)cc(C)c(Br)c3C)c(O)c2Br)c(C)c1Br; 0.0
6. COC1CCC(OC)C(c2nc3sccn3c2/C=N/N=C(N)N)C1 (configuration not stated); 0.0
7. O=C(NCc1cn(Cc2cccc(Oc3ccccc3)c2)nn1)c1cccnc1NCc1ccc(Cl)cc1; 0.0
8. S=C(Nc1ccc(-c2nc3ccccc3s2)cc1)Nc1ccc(-c2nc3ccccc3s2)cc1; 0.0
9. CCN(CC)c1ccc(/C=N/N=C(N)N)cc1; 0.0
10. CCS(=O)(=O)c1cccc(-c2cc(C(=O)NC3CCN(C)CC3)c(C)c3[nH]c4ncc(C)cc4c23)c1; 0.0

Now examine the next entry.
Incoming: Any idea what this test logged for "COc1ccc2c(CN3CCCC[C@H]3O)cc3cc4c(cc3c2c1)OCO4" ?
Outgoing: 0.0
